Biological target: T1, mouse ASIC1a-eYFP (mASIC1a-eYFP) on transiently transfected CHO-K1 cells (mouse, UniProt Q6NXK8 1-526)
T1 construct: whole, on cells; not shown: eYFP fusion partner
T1 sequence (looked up): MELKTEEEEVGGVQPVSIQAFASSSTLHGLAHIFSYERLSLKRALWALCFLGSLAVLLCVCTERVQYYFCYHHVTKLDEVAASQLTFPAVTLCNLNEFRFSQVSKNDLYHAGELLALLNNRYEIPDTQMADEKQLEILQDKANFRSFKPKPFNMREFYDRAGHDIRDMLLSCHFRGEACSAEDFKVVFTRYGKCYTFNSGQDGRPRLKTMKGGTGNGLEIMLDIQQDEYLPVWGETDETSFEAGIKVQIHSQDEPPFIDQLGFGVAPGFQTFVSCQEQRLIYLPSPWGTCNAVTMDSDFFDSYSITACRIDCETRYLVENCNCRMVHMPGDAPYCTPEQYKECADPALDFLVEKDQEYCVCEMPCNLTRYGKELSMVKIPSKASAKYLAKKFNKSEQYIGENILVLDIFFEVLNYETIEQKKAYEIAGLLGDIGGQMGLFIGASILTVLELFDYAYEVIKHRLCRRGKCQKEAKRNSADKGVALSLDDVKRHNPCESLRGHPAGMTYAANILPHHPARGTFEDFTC
Experiment: FACS on transiently transfected CHO-K1 cells
endpoint_name: binding result

Entry under review: ASC06-02-IgG1 (antibody, V domains shown, Full length IgG1) VH: QVQLQQSGGGLVQPGGSLRLSCAASGFTFSSYAMSWVRQAPGKGLEWVSAISGSGGSTYYADSVKGRFTISRDNSKNTLYLQMNSLRAEDTAVYYCAKDSFFGRAKGSWGQGTLVTVSS VL: QSALTQPASVSGSPGQSITISCTGTSSDVGAYNYVSWYQQQPGKAPKLMIYGVSNRPSGVSNRFSGSKSGNAASLTISGLQAEDEADYYCSSYTSSSTYVFGTGTKLTVLG . Reported binding result?
binds
